Test system: Staphylococcus aureus
Assay comment: Antimicrobial activity against Staphylococcus aureus ATCC 25923 by serial dilution method
Format: functional
Non-standard residues stand in square brackets, D forms with d. Residues, ends and D or L forms follow the SMILES beside them. *: point of attachment. Phe(4-guanidino) = N=C(N)Nc1ccc(C[C@H](N)C(=O)O)cc1; Bip = N[C@@H](Cc1ccc(-c2ccccc2)cc1)C(=O)O; NHBn = c1ccc(CN*)cc1
Observation type: MIC (µg/mL)

INSERT INTO measurements (compound, reported) VALUES
  ('N=C(N)NCCC[C@H](N)C(=O)N[C@@H](Cc1ccc(NC(=N)N)cc1)C(=O)N[C@@H](Cc1c[nH]c2ccccc12)C(=O)NCc1ccccc1 (H-Arg-[Phe(4-guanidino)]-Trp-NHBn)', 15),
  ('N=C(N)Nc1ccc(C[C@H](N)C(=O)N[C@@H](Cc2ccc(-c3ccccc3)cc2)C(=O)N[C@@H](CCCCN)C(=O)NCc2ccccc2)cc1 (H-[Phe(4-guanidino)]-[Bip]-Lys-NHBn)', 5),
  ('N=C(N)NCCC[C@H](NC(=O)[C@H](Cc1ccc(-c2ccccc2)cc1)NC(=O)[C@@H](N)Cc1ccc(NC(=N)N)cc1)C(=O)NCc1ccccc1 (H-[Phe(4-guanidino)]-[Bip]-Arg-NHBn)', 5);
